# target under test: T1, BSA-conjugated Aβ heptapeptide VFFAEDC (C-terminal Cys coupled to NSMP-activated BSA);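 further: ELISA of antibody at 10 or 2 µg/ml binding plate-coated BSA–peptide conjugates, detected with HRP anti-human Ig and TMB colour, mock-treated BSA without peptide as negative control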
# T1 construct: also called Peptide 18-23
# T1 peptide: VFFAEDC
# test summary: ELISA
Record 1 whenever OD ratio 18-23/BSA is at 10 or higher; record -1 when lower.

Examples from the recorded data:
binder: MS-Roche #7.11.H1 Fab (Fab, V domains shown) VH: QVQLVESGGGLVQPGGSLRLSCAASGFTFSSYAMSWVRQAPGKGLEWVSGINAAGFRTYYADSVKGRFTISRDNSKNTLYLQMNSLRAEDTAVYYCARGKGNTHKPYGYVRYFDVWGQGTLVTVSS VL: DIVLTQSPATLSLSPGERATLSCRASQSVSSSYLAWYQQKPGQAPRLLIYGASSRATGVPARFSGSGSGTDFTLTISSLEPEDFATYYCQQVYSPPHTFGQGTKVEIKR
category label: -1
--
binder: MS-Roche #7.2.H3 Fab (Fab, V domains shown) VH: QVQLVESGGGLVQPGGSLRLSCAASGFTFSSYAMSWVRQAPGKGLEWVSAINANGYKTYYADSVKGRFTISRDNSKNTLYLQMNSLRAEDTAVYYCARGKGNTHKPYGYVRYFDVWGQGTLVTVSS VL: DIVLTQSPATLSLSPGERATLSCRASQSVSSSYLAWYQQKPGQAPRLLIYGASSRATGVPARFSGSGSGTDFTLTISSLEPEDFATYYCQQIYSFPHTFGQGTKVEIKR
category label: 1
--
binder: MS-Roche #7.12.L1 Fab (Fab, V domains shown) VH: QVQLVESGGGLVQPGGSLRLSCAASGFTFSSYGMSWVRQAPGKGLEWVSNISGSGSSTYYADSVKGRFTISRDNSKNTLYLQMNSLRAEDTAVYYCARGKGNTHKPYGYVRYFDVWGQGTLVTVSS VL: DIVLTQSPATLSLSPGERATLSCRASQYVFRRYLAWYQQKPGQAPRLLISGSSNRATGVPARFSGSGSGTDFTLTISSLEPEDFAVYYCLQLYNIPNTFGQGTKVEIKR
category label: 1
--
binder: MS-Roche #7.9.H4 Fab (Fab, V domains shown, assembled) VH: QVQLVESGGGLVQPGGSLRLSCAASGFTFSSYAMSWVRQAPGKGLEWVSAINAVGMKKFYADSVKGRFTISRDNSKNTLYLQMNSLRAEDTAVYYCARGKGNTHKPYGYVRYFDVWGQGTLVTVSS VL: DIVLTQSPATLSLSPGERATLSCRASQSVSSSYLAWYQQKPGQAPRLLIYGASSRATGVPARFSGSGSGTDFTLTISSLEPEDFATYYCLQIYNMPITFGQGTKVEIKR
category label: 1

Q) # bool: OD ratio 18-23/BSA of MS-Roche #7.2.H5 Fab (Fab, V domains shown) VH: QVQLVESGGGLVQPGGSLRLSCAASGFTFSSYAMSWVRQAPGKGLEWVSAINATGRSKYYADSVKGRFTISRDNSKNTLYLQMNSLRAEDTAVYYCARGKGNTHKPYGYVRYFDVWGQGTLVTVSS VL: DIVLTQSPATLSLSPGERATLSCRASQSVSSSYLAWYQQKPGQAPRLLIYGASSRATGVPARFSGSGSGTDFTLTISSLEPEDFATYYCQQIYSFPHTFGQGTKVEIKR >= 10
A) 1
